System: DU-145
Experiment: Cell growth inhibition assay, prostate cancer cell line DU-145
Type: cell-based
Settings: Homo sapiens, DU-145 prostate cancer cell line
MEASURED ATTRIBUTE: IC50 (µM)
The reply should contain only the number, in µM.

Write down the reported IC50 of "CC(C)Oc1cc(CN2CCN(S(C)(=O)=O)CC2)cc(C(C)(C)c2cc(Cl)cc(NC(=O)c3cc4cc(NS(C)(=O)=O)ccc4s3)c2)c1" , test system: DU-145.
0.15

For "CC(C)Oc1cc(OC(F)(F)F)cc(C(C)(C)c2cc(Cl)cc(NC(=O)c3nc4cc(NS(C)(=O)=O)ccc4s3)c2)c1" then?
0.11

Continue with "CC(C)(c1cc(Cl)cc(NC(=O)c2cc3cc(NS(C)(=O)=O)c(Cl)cc3s2)c1)c1ccc(Cl)s1"
0.005

Next record, please: "Cn1ccc(C(C)(C)c2cc(Cl)cc(NC(=O)c3cc4cc(NS(C)(=O)=O)ccc4s3)c2)c1"
0.13

Can you check "CC(C)Oc1cc(OC(F)(F)F)cc(C(C)(C)c2cc(Cl)cc(NC(=O)c3cc4ccc(NS(C)(=O)=O)nc4[nH]3)c2)c1" next?
0.33

Now consider "CS(=O)(=O)Nc1cc2cc(C(=O)Nc3cc(Cl)cc(Oc4ccc(Cl)cc4)c3)sc2cc1Br" and answer again.
0.018

Another compound: "CC(C)(c1cc(Cl)cc(NC(=O)c2cc3cc(NS(C)(=O)=O)ccc3s2)c1)c1ccc(F)c(F)c1"
0.052

Consider next the compound "COc1cc(OC(F)(F)F)cc(-c2cc(Cl)cc(NC(=O)c3cc4cc(N(C)S(C)(=O)=O)c(F)cc4s3)c2)c1" in the same way.
0.064

Input "COCCS(=O)(=O)Nc1ccc2sc(C(=O)Nc3cc(Cl)cc(C(C)(C)c4cc(OC(C)C)cc(OC(F)(F)F)c4)c3)cc2c1"
0.007

Quick one: "COc1cc(OC(F)(F)F)cc(C(C)(C)c2cc(Cl)nc(NC(=O)c3cc4cc(NS(C)(=O)=O)ccc4s3)c2)c1"
0.38

Entry "CC(C)Oc1cc(OC(F)(F)F)cc(C(C)(C)c2cc(Cl)cc(NC(=O)c3cc4cc(NS(=O)(=O)c5ccn(C)n5)ccc4s3)c2)c1" please
0.19

Next compound up: "CS(=O)(=O)Nc1cc2cc(C(=O)Nc3cc(Cl)cc(Oc4cccc(OC(F)(F)F)c4)c3)sc2cc1Cl"
0.006

Proceed to "CN(C)S(=O)(=O)N1CCN(Cc2cc(OC(F)(F)C(F)F)cc(C(C)(C)c3cc(Br)cc(NC(=O)c4cc5cc(NS(C)(=O)=O)ccc5s4)c3)c2)CC1"
0.073

Quick one: "COc1ccc(C(C)(C)c2cc(Cl)cc(NC(=O)c3cc4cc(NS(C)(=O)=O)ccc4s3)c2)cc1OC"
0.15

Entry to check: "COc1cc(OC(F)(F)F)cc(C(C)(C)c2cc(Br)cc(NC(=O)c3cc4ccc(NS(C)(=O)=O)cc4[nH]3)c2)c1"
0.024

Param item: "CS(=O)(=O)Nc1cc2cc(C(=O)Nc3cc(Cl)cc(-c4ccc(F)cc4F)c3)sc2cc1Cl"
0.004

Same lookup for "CC(C)Oc1cc(OC(F)(F)F)cc(C2(c3cc(Cl)cc(NC(=O)c4cc5cc(N(C)S(C)(=O)=O)c(F)cc5s4)c3)CC2)c1" , please.
0.006

And "CS(=O)(=O)Nc1ccc2sc(C(=O)Nc3cc(Cl)cc(Oc4ccc(F)cc4F)c3)cc2c1" ?
0.13

Also, "CS(=O)(=O)Nc1ccc2sc(C(=O)Nc3cc(Cl)cc(Oc4cccc(C#N)c4)c3)cc2c1" please.
0.59

Okay, and "CS(=O)(=O)Nc1ccc2sc(C(=O)Nc3cc(Cl)cc(Oc4ccc(C(F)(F)F)cc4)c3)cc2c1" ?
0.048

Continue with "Cc1ccc(Oc2cc(Cl)cc(NC(=O)c3cc4cc(NS(C)(=O)=O)c(Cl)cc4s3)c2)s1"
0.025

Another compound to check: "CC(C)(c1cc(Cl)cc(NC(=O)c2cc3cc(NS(C)(=O)=O)ccc3s2)c1)c1cc(OCC(F)F)cc(OC(F)(F)F)c1"
0.012

Consider next the compound "CS(=O)(=O)Nc1ccc2sc(C(=O)Nc3cc(-c4ccc(F)cc4F)cc(Cl)n3)cc2c1" in the same way.
0.43

Input "CC(C)(c1ccc(Cl)cc1)c1cc(Cl)cc(NC(=O)c2cc3cc(NS(C)(=O)=O)ccc3s2)c1"
0.048
